assay: Microsomal stability in human liver microsomes assessed as half life at 3 mg/kg, ip by LC-MS/MS analysis; format: ADME, Microsome
# half-life listing for each entry below
measurement_label: half-life

[
  {
    "smiles_notation": "CCN(CC)S(=O)(=O)/N=C(/N=C(/C)N)N1C[C@H](c2ccccc2)C(c2ccc(Cl)cc2)=N1",
    "measurement_label": "half-life",
    "value_reported": "> 2 min"
  },
  {
    "smiles_notation": "C/C(N)=N\\C(=N\\S(=O)(=O)N1CCCCC1)N1C[C@H](c2ccccc2)C(c2ccc(Cl)cc2)=N1",
    "measurement_label": "half-life",
    "value_reported": "> 2 min"
  }
]
